meta.source: patent US20050239656A1

System: crabgrass
EXPERIMENT_NOTES: Test Example 2: soil surface treatment, upland pot test
Format: in vivo, Digitaria sanguinalis L.
CONDITIONS: active ingredient 250 g/ha, observed 20th to 28th day
Consider the following compounds; for each one, report its Growth controlling degree (%) Crabgrass.
Value expressed in %; do not type the unit.

Short answer for CC(C)C(c1cnccc1C(F)(F)F)N(C)C(=O)C(Br)C(C)(C)C (stereo not drawn) : Growth controlling degree (%) Crabgrass was 90

Short answer for CC(C)C(c1cnccc1C(F)(F)F)N(C)C(=O)Cc1ccccc1Cl (stereo not drawn) : Growth controlling degree (%) Crabgrass was 80

Short answer for CC(C)C(c1cnccc1C(F)(F)F)N(C)C(=O)Cc1ccc(Cl)cc1 (stereo not drawn) : Growth controlling degree (%) Crabgrass was 98

Short answer for CC(C)C(c1cnccc1C(F)(F)F)N(C)C(=O)Cc1ccc(Br)cc1F (racemic) : Growth controlling degree (%) Crabgrass was 98

Short answer for CCCOC(=O)N(C)C(c1cnccc1C(F)(F)F)C(C)C (stereo not drawn) : Growth controlling degree (%) Crabgrass was 100

Short answer for CC(=O)N(C)C(c1cnccc1C(F)(F)F)C(C)C (stereo not drawn) : Growth controlling degree (%) Crabgrass was 100

Short answer for CCC(Br)C(=O)N(C)C(c1cnccc1C(F)(F)F)C(C)C (stereo not drawn) : Growth controlling degree (%) Crabgrass was 100

Short answer for CC(C)=CC(=O)N(C)C(c1cnccc1C(F)(F)F)C(C)C (stereo not drawn) : Growth controlling degree (%) Crabgrass was 100

Short answer for CC(C)CC(=O)N(C)C(c1cnccc1C(F)(F)F)C(C)C (stereo not drawn) : Growth controlling degree (%) Crabgrass was 100

Short answer for CC(C)C(c1cnccc1C(F)(F)F)N(C)C(=O)Cc1ccccc1F (stereo not drawn) : Growth controlling degree (%) Crabgrass was 100

Short answer for CC(C)C(c1cnccc1C(F)(F)F)N(C)C(=O)CC(C)(C)C (stereo not drawn) : Growth controlling degree (%) Crabgrass was 100

Short answer for COCC(=O)N(C)C(c1cnccc1C(F)(F)F)C(C)C (stereo not drawn) : Growth controlling degree (%) Crabgrass was 98

Short answer for CCCCC(=O)N(C)C(c1cnccc1C(F)(F)F)C(C)C (stereo not drawn) : Growth controlling degree (%) Crabgrass was 100

Short answer for CC(C)C(c1cnccc1C(F)(F)F)N(C)C(=O)C(F)=Cc1ccccc1 (stereo not drawn) : Growth controlling degree (%) Crabgrass was 98

Short answer for CC(C)C(c1cnccc1C(F)(F)F)N(C)C(=O)CCBr (stereo not drawn) : Growth controlling degree (%) Crabgrass was 100

Short answer for CC(C)C(c1cnccc1C(F)(F)F)N(C)C(=O)C1CC1 (stereo not drawn) : Growth controlling degree (%) Crabgrass was 100

Short answer for CC(=Cc1ccccc1)C(=O)N(C)C(c1cnccc1C(F)(F)F)C(C)C (stereo not drawn) : Growth controlling degree (%) Crabgrass was 100

Short answer for CC(C)C(c1cnccc1C(F)(F)F)N(C)S(=O)(=O)c1ccc(Br)cc1 (racemic) : Growth controlling degree (%) Crabgrass was 90

Short answer for Cc1ccc(S(=O)(=O)N(C)C(c2cnccc2C(F)(F)F)C(C)C)cc1 (racemic) : Growth controlling degree (%) Crabgrass was 98

Short answer for CC(C)C(c1cnccc1C(F)(F)F)N(C)C(=O)C(F)(F)F (stereo not drawn) : Growth controlling degree (%) Crabgrass was 98

Short answer for CC(C)C(c1cnccc1C(F)(F)F)N(C)C(=O)Cc1ccc(F)cc1 (stereo not drawn) : Growth controlling degree (%) Crabgrass was 98
